Origin of values: patent EP4786492A1

Biological target: human DLL3 protein (extracellular segment, His tag) (human) (UniProt Q9NYJ7)
Sequence (Q9NYJ7 27-492): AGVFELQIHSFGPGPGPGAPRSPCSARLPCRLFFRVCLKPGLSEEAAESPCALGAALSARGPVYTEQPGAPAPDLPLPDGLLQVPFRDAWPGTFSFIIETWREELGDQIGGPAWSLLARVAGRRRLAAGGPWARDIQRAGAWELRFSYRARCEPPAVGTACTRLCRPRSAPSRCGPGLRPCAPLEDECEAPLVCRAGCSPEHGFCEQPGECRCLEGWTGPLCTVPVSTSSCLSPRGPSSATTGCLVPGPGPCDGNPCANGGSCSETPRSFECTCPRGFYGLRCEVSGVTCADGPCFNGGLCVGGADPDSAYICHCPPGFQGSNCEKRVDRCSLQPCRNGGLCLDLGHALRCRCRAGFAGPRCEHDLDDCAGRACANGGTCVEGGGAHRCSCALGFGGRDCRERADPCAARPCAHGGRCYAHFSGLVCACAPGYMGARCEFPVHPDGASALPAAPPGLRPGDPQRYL
Assay: SPR (Biacore 8K), antibody captured on Protein A chip, DLL3 antigen in solution, 1:1 Langmuir fit
quantity_kind: pKd
Quick note: pKd means taking -log10 of the concentration in moles per liter.

Check out these entries, answers already filled in.
binder: Hab014VL1VH2-hFc (scFv, part only; not given: VL-VH linker and human IgG1 Fc, V domains shown, not shown: another chain or arm of the molecule; a dimerising Fc or GST; small tags and cut ends) VL: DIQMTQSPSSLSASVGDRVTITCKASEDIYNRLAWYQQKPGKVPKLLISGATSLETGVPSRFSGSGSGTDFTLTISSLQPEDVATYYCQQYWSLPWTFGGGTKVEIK VH: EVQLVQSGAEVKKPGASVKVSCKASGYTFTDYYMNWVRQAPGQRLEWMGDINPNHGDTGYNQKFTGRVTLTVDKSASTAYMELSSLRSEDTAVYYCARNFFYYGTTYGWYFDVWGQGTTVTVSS
pKd: 10.11

binder: Hab015VL4VH6b-hFc (Fc fusion, part only; not given: VL-VH linker and human IgG1 Fc, not shown: another chain or arm of the molecule; a dimerising Fc or GST; small tags and cut ends) VL: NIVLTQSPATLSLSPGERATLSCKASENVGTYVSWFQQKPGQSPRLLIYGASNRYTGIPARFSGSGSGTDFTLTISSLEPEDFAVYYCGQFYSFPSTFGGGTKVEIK VH: EVQLVESGGGLVKPGGSLRLSCAASGITFSNFWMNWVRQAPEKGLEWVGQIRLKSDQYATHYAESVKGRFTISREDSKNTVYLQMNSLKTEDTAVYYCTTGYYFDYWGQGTTVTVSS
pKd: 10.88

binder: Hab008L3H5-hFc (scFv, part only; not given: scFv linker and human IgG1 Fc, V domains shown, not shown: another chain or arm of the molecule; a dimerising Fc or GST; small tags and cut ends) VL: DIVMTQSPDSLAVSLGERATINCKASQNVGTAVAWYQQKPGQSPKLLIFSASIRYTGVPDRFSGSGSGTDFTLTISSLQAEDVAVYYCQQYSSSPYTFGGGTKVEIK VH: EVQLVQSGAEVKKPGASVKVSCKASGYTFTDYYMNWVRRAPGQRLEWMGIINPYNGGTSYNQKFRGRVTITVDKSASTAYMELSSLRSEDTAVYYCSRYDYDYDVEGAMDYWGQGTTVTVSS
pKd: 9.04

binder: Hab014VL2VH1-hFc (scFv, part only; not given: scFv linker and human IgG1 Fc, V domains shown, not shown: another chain or arm of the molecule; a dimerising Fc or GST; small tags and cut ends) VL: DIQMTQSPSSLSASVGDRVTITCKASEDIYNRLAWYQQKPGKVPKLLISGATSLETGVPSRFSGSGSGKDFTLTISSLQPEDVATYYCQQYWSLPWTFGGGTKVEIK VH: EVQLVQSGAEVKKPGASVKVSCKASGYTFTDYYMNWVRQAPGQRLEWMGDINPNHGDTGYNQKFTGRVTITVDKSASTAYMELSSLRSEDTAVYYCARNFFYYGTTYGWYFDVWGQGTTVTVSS
pKd: 9.95

For the next question, use this binder.
Challenge: Quick one: pKd of Hab009VL1aVH1-hFc (scFv, part only; not given: scFv linker and human IgG1 Fc, V domains shown, not shown: another chain or arm of the molecule; a dimerising Fc or GST; small tags and cut ends) VL: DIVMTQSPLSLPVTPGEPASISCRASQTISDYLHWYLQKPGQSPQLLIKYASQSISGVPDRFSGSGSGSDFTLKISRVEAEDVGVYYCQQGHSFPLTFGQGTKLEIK VH: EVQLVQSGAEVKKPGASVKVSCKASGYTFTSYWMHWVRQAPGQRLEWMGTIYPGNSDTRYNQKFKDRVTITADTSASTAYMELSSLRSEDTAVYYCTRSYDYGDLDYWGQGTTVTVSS ?
Response given: 9.49
